Entry source: patent US8633237B2

target: AMPA (GluR1) receptor (Homo sapiens); assay: Ca2+ influx fluorescence assay (FLEXstation, Fluo-3) in HEK.GluR1(i) cells; settings: glutamate +/- test compound, read-out: EC50, positive modulation of the AMPA receptor
Sequence (P42261 19-906 isoform P42261-2 limits assumed, species assumed): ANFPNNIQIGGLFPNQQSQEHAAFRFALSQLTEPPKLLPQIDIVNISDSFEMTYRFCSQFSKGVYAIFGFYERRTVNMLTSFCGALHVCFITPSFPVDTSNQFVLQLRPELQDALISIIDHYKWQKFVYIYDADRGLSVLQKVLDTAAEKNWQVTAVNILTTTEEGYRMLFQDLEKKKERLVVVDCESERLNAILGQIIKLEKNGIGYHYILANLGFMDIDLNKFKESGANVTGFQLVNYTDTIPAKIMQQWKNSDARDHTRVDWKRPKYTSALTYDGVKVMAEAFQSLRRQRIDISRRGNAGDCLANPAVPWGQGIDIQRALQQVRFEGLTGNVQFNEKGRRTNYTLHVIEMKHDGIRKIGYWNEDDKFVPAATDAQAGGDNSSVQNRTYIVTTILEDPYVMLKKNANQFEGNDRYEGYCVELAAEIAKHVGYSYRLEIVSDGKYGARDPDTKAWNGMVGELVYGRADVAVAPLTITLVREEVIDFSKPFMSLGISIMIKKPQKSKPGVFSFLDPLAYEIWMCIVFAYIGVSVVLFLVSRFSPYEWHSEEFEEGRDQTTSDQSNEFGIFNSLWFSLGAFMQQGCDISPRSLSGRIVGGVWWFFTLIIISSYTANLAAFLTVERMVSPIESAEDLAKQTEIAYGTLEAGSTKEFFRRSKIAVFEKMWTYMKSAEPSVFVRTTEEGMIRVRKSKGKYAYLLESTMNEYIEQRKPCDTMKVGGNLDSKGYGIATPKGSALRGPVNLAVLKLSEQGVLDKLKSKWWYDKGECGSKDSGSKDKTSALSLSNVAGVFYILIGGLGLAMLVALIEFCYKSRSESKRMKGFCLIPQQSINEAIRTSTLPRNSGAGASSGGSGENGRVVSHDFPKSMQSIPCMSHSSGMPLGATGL
Observation Type: EC50

Fill blank: measured EC50 of the compound CC(C)S(=O)(=O)N[C@H]1Cc2ccc(Oc3cccc(C(F)(F)F)c3)cc2C1 is ____. 2.3 µM
